Values were extracted from ChEMBL document CHEMBL5096232.

# ASSAY_METHOD_TEXT: Half life in ip dosed mouse
# Format: ADME, organism-based
# MEASUREMENT_SETUP: in vivo
MEASURED_QUANTITY: half-life (min)
Form entry: value (min) — number only.

Lookup: Could you share which half-life value was measured for O=C([O-])/C=C1\CCCc2cc(-c3ccccc3)ccc2C1O.[Na+] (stereo unspecified) ?
Found: 18

---

# Test system: BCRP
# ASSAY_METHOD_TEXT: Apparent permeability across apical to basolateral side in MDCK-II-BCRP cells at 3 uM measured after 60 to 90 mins by LC-MS/MS analysis
# Assay type: ADME, cell-based, Canis lupus familiaris
# MEASUREMENT_SETUP: dog, time 60-90 min
MEASURED_QUANTITY: Papp A→B at 3 µM (nm/s)
Respond numerically; units are nm/s and should not be typed.

Lookup: Give recorded Papp A→B at 3 µM with BCRP for the following compound: O=C([O-])/C=C1\CCCc2cc(-c3ccccc3)ccc2C1O.[Na+] (stereo unspecified)
Found: 158
